Molecular target: T1, PfAMA1 (DI-DII of Plasmodium falciparum Apical Membrane Antigen 1, 3D7, residues 104-438) (Plasmodium falciparum, UniProt Q7KQK5 104-438)
T1 construct: codon-optimized synthetic gene; also called native PfAMA1; PfAMA1 DI-DII construct
T1 sequence: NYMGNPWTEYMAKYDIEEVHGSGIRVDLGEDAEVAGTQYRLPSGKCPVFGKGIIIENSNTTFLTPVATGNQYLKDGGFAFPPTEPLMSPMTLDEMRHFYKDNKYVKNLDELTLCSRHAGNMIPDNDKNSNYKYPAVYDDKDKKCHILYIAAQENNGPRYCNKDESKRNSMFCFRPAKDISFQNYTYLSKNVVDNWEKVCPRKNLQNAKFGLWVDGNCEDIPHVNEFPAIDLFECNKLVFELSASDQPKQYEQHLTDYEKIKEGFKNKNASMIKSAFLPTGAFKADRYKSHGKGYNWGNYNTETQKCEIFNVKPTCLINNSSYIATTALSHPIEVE
Assay: ITC; 25°C, MicroCal iTC200; cell: PfAMA1 or ΔDII-PfAMA1 (10 μM); syringe: PfRON2D3-TRX (110 μM), 17 injections of 2.2 μL; 20 mM Hepes pH 7.5, 150 mM NaCl; one binding site model
Settings: both partners purified
pKd: −log10 of the molar value.
measure_name: pKd

binder: DITQQAKDIGAGPVASCFTTRMSPPQQICLNSVVNTALS (domain or fragment, Modified pET32a vector with N-terminal hexahistidine and thioredoxin tags and a thrombin cleavage site; the fusion was used uncleaved in ITC; also called TRX-fused peptide; not shown: thioredoxin (TRX), N-terminal, kept) [PfRON2D3-TRX (thioredoxin fusion of PfRON2D3, amino acids Asp2021 to Ser2059)]
measure_name: pKd
data_value: 7.37
